target: ETA Receptor (Rattus norvegicus, UniProt P26684); construct: endogenous in cells; host or cells: MMQ rat pituitary cells (membranes); test: [125I]ET-1 binding to membranes from MMQ cells (ETA receptor binding assay, Table 4); conditions: test compound at 1 μM; 0.1 nM [125I]ET-1, MMQ cell membranes, 4 hours at 25° C.
Sequence (P26684 21-426): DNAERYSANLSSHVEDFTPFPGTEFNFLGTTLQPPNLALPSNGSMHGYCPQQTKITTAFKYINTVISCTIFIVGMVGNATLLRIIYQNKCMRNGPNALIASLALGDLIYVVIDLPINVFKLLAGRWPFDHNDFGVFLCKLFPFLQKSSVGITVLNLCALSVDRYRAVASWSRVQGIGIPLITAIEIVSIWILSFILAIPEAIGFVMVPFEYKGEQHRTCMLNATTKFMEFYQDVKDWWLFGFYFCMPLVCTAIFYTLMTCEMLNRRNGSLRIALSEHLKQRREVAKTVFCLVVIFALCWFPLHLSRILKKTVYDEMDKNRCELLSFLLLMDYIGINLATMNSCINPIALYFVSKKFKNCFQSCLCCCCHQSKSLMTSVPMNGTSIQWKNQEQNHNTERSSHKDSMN
resultType: % Inhibition of ETA at 1 μM (%)

CCCCN(CCCC)C(=O)CN1CC(c2ccc3c(c2)OCO3)C(C(=O)O)C1CCOC (centres unmarked) [Example 309]: 80.7
CCCN(CCN1CC(c2ccc3c(c2)OCO3)C(C(=O)O)C1c1ccc(OC)cc1)S(=O)(=O)CCOC (centres unmarked) [Example 125]: 97.2
CCCN(CCN1CC(c2ccc3c(c2)OCO3)C(C(=O)O)C1c1ccc(OC)cc1)S(=O)(=O)c1cccc2c(N(C)C)cccc12 (centres unmarked) [Example 127]: 91.4
CCCCC(=O)CN1CC(c2ccc3c(c2)OCO3)C(C(=O)O)C1c1ccc(OC)cc1 (centres unmarked) [Example 72C]: 80.7
CCCCN(CCCC)C(=O)CN1CC(c2ccc3c(c2)OCC3)C(C(=O)O)C1c1ccc(OC)cc1 (centres unmarked) [Example 141]: 92.8
CCCN(CCN1CC(c2ccc3c(c2)OCO3)C(C(=O)O)C1c1ccc(OC)cc1)S(=O)(=O)c1ccc(F)cc1 (centres unmarked) [Example 134]: 92.2
CCCCN(CCCC)C(=O)CN1CC(c2cccc(F)c2)C(C(=O)O)C1c1ccc(OC)cc1 (centres unmarked) [Example 164]: 98.6
COc1ccc(C2C(C(=O)O)C(c3ccc4c(c3)OCO4)CN2CC(=O)N2CCc3ccccc3C2)cc1 (centres unmarked) [Example 296]: 87.1
CCN(CC)C(=O)CN1CC(c2ccc3c(c2)OCO3)C(C(=O)O)C1c1ccc(OC)cc1 (centres unmarked) [Example 44]: 91.3
CCCCOCCN1CC(c2ccc(OC)cc2)C(C(=O)O)C1c1ccc2c(c1)OCO2 (centres unmarked) [Example 27]: 61.2
CCCCNC(=O)CN1CC(c2ccc3c(c2)OCO3)C(C(=O)O)C1c1ccc(OC)cc1 (centres unmarked) [Example 15]: 84.8
CCCN(CCN1CC(c2ccc3c(c2)OCO3)C(C(=O)O)C1c1ccc(OC)cc1)C(=O)N(C)C (centres unmarked) [Example 297]: 84.4
COc1ccc(C2C(C(=O)O)C(c3ccc4c(c3)OCO4)CN2CC(=O)N2CC[C@@H]3CCCC[C@H]3C2)cc1 (relative stereo) [Example 293]: 89.8
COc1ccc(C2C(C(=O)O)C(c3ccc4c(c3)OCO4)CN2CC(=O)N(C)CC(C)C)cc1 (centres unmarked) [Example 48]: 96.3
CCCCN(C)C(=O)CN1CC(c2ccc3c(c2)OCO3)C(C(=O)O)C1c1ccc(OC)cc1OCOC (centres unmarked) [Example 31B]: 93.6
CCOC(=O)N(CC)CCN1CC(c2ccc3c(c2)OCO3)C(C(=O)O)C1c1ccc(OC)cc1 (centres unmarked) [Example 305]: 87.4
CCCCCS(=O)(=O)N(CCC)CCN1CC(c2ccc3c(c2)OCO3)C(C(=O)O)C1CCC (centres unmarked) [Example 314]: 86.0
COc1ccc(C2C(C(=O)O)C(c3ccc4c(c3)OCO4)CN2CC(N)=O)cc1 (centres unmarked) [Example 2]: 58.4
CCCCCCN(C)C(=O)CN1CC(c2ccc3c(c2)OCO3)C(C(=O)O)C1c1ccc(OC)cc1 (centres unmarked) [Example 42]: 95.2
CCC1CCCCN1C(=O)CN1CC(c2ccc3c(c2)OCO3)C(C(=O)O)C1c1ccc(OC)cc1 (centres unmarked) [Example 302]: 86.6
CCCCN(C)C(=O)CN1CC(c2ccc3c(c2)OCO3)C(C(=O)O)C1c1ccc(OC)cc1 (centres unmarked) [Example 30]: 80.0
CCCCN(CCCC)C(=O)CN1CC(c2ccc3c(c2)OCO3)C(C(=O)O)C1c1ccccc1F (centres unmarked) [Example 166]: 91.6
CCCCCN(C)C(=O)CN1CC(c2ccc3c(c2)OCO3)C(C(=O)O)C1c1ccc(OC)cc1 (centres unmarked) [Example 39]: 83.6
CCCCN(CCCC)C(=O)CN1CC(c2ccc(F)c(F)c2)C(C(=O)O)C1c1ccc(OC)cc1 (centres unmarked) [Example 150]: 93.6
CCCCN(CCCC)C(=O)CN1CC(c2cccc3occc23)C(C(=O)O)C1c1ccc(OC)cc1 (centres unmarked) [Example 138]: 83.0
CCCN(C)C(=O)CN1CC(c2ccc3ccoc3c2)C(C(=O)O)C1c1ccc(OC)cc1 (centres unmarked) [Example 136]: 79.4
